src = the supplement of paper PMC6757056

Provide the recorded normalized RNA/DNA level with ligand (log10) for the entries that follow.
B1: library; a variant is named by its letters at N, in order (parent)
chain: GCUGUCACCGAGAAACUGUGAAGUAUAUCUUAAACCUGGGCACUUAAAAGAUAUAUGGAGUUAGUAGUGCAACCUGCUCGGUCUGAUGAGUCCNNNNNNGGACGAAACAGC

# Variants of: B1
# protocolSummary: normalized RNA/DNA level with ligand (relative to sTRSVctl = 100) (log10 (% of sTRSVctl)); HEK293T; ligand: cyclic di-GMP (c-di-GMP-II aptamer); ligand concentration (+) RNA-Seq: 1 mM; higher = less ribozyme self-cleavage, higher mRNA level
# experimentalConditions: reporter: mCherry (pCS4076), ligand present: yes
One number for each entry.

# mutationAnnotation, readoutValue
rows = [
    ("AUUGUG", 1.84),
]

Answer for every listed entry: what is its normalized RNA/DNA level with ligand (log10)? The entries follow.
1. UUUGAU
2. AGCUGG
3. UGACAA
4. GUCUCU
5. GGUGUU

-- reply
1. 1.82
2. 1.81
3. 1.8
4. 1.86
5. 1.86

Answer for every listed entry: what is its normalized RNA/DNA level with ligand (log10)? The entries follow.
1. UGUCUU
2. CCUGGC

-- reply
1: 1.88; 2: 1.82
